Biological target: T1, human CTGF (antigen of the Biacore assays) (human, UniProt P29279 27-349)
T1 construct: also called antigen human CTGF; human CTGF protein
T1 sequence (looked up): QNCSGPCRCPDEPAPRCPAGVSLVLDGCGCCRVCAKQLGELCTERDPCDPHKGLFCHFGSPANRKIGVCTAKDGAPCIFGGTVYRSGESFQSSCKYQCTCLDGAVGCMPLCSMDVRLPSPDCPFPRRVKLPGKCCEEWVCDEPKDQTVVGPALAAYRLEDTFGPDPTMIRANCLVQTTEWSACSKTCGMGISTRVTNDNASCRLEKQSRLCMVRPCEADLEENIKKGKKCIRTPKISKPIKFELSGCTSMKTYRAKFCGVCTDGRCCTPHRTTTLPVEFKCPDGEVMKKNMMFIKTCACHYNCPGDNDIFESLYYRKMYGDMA
Experiment: Biacore, antibody captured on Protein A, CTGF in flow, 1:1 fit
Record form. Attribute: log10 of Kd. Fill in for each entry.
Annotation: log10 of Kd, nM basis.

Exercise: What does the record list as log10 of Kd for Hu147-32wk (antibody, human IgG1, kappa, V domains shown) VH: EVQLVESGGGLVQPGGSLRLSCAASGFSFNTYAMNWVRQAPGKGLEWVARIRTKSNNYATYYADSVKDRFTISRDDSESSLYLQMNSLKTEDTAVYYCVETGFAYWDQGTLVTVSS VL: EIVLTQSPATLSLSPGERATLSCSASSSVSYMHWFQQKPGQSPKLLIYSTSNLASGIPARFSGSGSGTDYTLTISSLEPEDFAVYYCQQRSSYPLTFGQGTKLEIKR ?
Solution: -0.04

Exercise: Same read-out for Hu95-21wk (antibody, human IgG1, kappa, V domains shown) VH: EVQLVQSGAEVKKPGASVKVSCKASGFTFTNYDIHWVRQAPGQRLEWIGLVYPYNGGTAYNQKFKDRATLTFDTSASTAYMELSSLRSEDTAVYYCARWGLIPGTTSYFDVWGQGTTVTVSS VL: EIVLTQSPATLSLSPGERATLSCRASSSVSYIHWYQQKPGQAPRPWIYATSNLASGIPARFSGSGSGTDYTLTISRLEPEDFAVYYCQQWNSNPWTFGGGTKVEIKR ?
Solution: 0.87

Exercise: Same read-out for Hu147-34wk (antibody, human IgG1, kappa, V domains shown) VH: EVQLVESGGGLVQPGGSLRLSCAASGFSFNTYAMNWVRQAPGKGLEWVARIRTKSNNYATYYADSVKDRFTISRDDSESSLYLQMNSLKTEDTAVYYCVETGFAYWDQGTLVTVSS VL: DIQMTQSPSSLSASVGDRVTITCSASSSVSYMHWFQQKPGKSPKLLIYSTSNLASGVPSRFSGSGSGTDYTLTISSLQPEDFATYYCQQRSSYPLTFGQGTKLEIKR ?
Solution: 0.02

Exercise: Same read-out for Hu164-77wl (antibody, human IgG1, lambda, V domains shown) VH: EVQLQESGPGLVKPSQTLSLTCTVSGFSISTFGVHWIRQHPGKGLEWIGVIWRRGGTDYNAAFMSRVTISKDTSKNQVSLKLSSVTAADTAVYYCARDGGFDYWGQGTTVTVSS VL: ETVVTQEPSLTVSPGGTVTLTCRSSIGAVTTSNYANWVQQKPGQAFRGLIGGTSNRAPWTPARFSGSLLGGKAALTLSGVQPEDEAEYYCALWYSTHYVFGGGTKLTVLG ?
Solution: -0.46

Exercise: Same read-out for Hu164-87wl (antibody, human IgG1, lambda, V domains shown) VH: EVQLQESGPGLVKPSQTLSLTCTVSGFSISTFGVHWIRQHPGKGLEWLGVIWRRGGTDYNAAFMSRLTISKDTSKNQVSFKLSSVTAADTAVYYCARDGGFDYWGQGTTVTVSS VL: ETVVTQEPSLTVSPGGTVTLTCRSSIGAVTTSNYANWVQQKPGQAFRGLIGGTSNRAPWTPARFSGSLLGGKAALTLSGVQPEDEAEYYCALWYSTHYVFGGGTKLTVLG ?
Solution: -0.71

Exercise: Same read-out for Hu95-41wk (antibody, human IgG1, kappa, V domains shown) VH: EVQLVQSGAEVKKPGASVKVSCKASGFTFTNYDIHWVKQAPGQRLEWIGLVYPYNGGTAYNQKFKDKATLTFDTSASTAYMELSSLRSEDTAVYYCARWGLIPGTTSYFDVWGQGTTVTVSS VL: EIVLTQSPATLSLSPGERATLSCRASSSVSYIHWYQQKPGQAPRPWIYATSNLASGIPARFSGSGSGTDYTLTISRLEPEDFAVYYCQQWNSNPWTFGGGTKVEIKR ?
Solution: 0.72

Exercise: Same read-out for chimeric antibody Ch164 (antibody, human IgG1, lambda, V domains shown) VH: QVQLKQSGPGLVQPSQSLSITCTVSGFSLTTFGVHWIRQSPGKGLEWLGVIWRRGGTDYNAAFMSRLSITKDNSRSHVFFKMTSLQTDDSAIYYCARDGGFDYWGQGTTLTVSS VL: QAVVTQESALTTSPGGTVILTCRSSIGAVTTSNYANWVQEKPDHLFTGLIGGTSNRAPGVPVRFSGSLIGDKAALTITGAQAEDDAMYFCALWYSTHYVFGGGTKVTVLG ?
Solution: -0.88

Exercise: Same read-out for Hu147-23wk (antibody, human IgG1, kappa, V domains shown) VH: EVQLVESGGGLVQPGGSLRLSCAASGFTFNTYAMNWVRQAPGKGLEWVARIRTKSNNYATYYADSVKDRFTISRDDSKNSLYLQMNSLKTEDTAVYYCVETGFAYWDQGTLVTVSS VL: EIVLTQSPATLSLSPGERATLSCSASSSVSYMHWFQQKPGQSPKLWIYSTSNLASGVPARFSGSGSGTDYTLTISSLEPEDFAVYYCQQRSSYPLTFGQGTKLEIKR ?
Solution: -0.09

Exercise: Same read-out for Hu147-33wk (antibody, human IgG1, kappa, V domains shown) VH: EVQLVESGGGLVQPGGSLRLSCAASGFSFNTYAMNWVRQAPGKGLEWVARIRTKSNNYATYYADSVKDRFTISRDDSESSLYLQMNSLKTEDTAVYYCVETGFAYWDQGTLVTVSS VL: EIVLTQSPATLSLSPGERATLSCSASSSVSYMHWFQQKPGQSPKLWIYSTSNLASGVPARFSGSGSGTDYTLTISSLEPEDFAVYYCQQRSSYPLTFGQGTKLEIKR ?
Solution: -0.15

Exercise: Same read-out for Hu147-12wk (antibody, human IgG1, kappa, V domains shown) VH: EVQLVESGGGLVQPGGSLRLSCAASGFTFSTYAMNWVRQAPGKGLEWVGRIRTKSNNYATYYADSVKDRFTISRDDSKNSLYLQMNSLKTEDTAVYYCVETGFAYWDQGTLVTVSS VL: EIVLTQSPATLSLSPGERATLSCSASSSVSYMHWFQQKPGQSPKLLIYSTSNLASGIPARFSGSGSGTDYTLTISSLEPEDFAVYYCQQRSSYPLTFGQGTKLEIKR ?
Solution: -0.01
